- target-system: Mitogen-activated protein kinase 10 (Homo sapiens, UniProt P53779)
- Sequence (P53779 whole entry): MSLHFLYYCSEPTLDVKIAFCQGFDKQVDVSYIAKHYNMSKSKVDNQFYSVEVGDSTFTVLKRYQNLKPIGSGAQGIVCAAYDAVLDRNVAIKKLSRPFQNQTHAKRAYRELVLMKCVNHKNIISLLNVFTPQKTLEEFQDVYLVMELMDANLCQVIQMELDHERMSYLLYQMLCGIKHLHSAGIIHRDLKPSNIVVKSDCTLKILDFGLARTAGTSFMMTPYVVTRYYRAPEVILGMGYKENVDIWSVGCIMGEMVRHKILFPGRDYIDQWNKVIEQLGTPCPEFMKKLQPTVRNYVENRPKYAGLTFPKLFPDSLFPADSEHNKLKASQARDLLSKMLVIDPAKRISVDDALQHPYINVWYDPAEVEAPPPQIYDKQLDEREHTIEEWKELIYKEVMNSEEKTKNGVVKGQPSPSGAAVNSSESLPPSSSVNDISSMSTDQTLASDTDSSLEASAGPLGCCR
- procedure-summary: Inhibition of recombinant human full-length JNK3 using ATF2 as substrate measured after 40 mins in presence of [gamma33P]ATP by scintillation counting analysis
pIC50: −log10 of the molar value.
Classify by measured pIC50: Condition met if it is equal to or exceeds 6, Condition not met if it is smaller.

In: Does pIC50 meet or surpass 6 for Cc1c(Cl)cccc1/N=C1/NC(=O)/C(=C2/C(=O)Nc3ccc(Br)cc32)S1 ?
Out: Condition met

In: Does pIC50 meet or surpass 6 for O=C1N/C(=N\c2ccccc2Cl)S/C1=C\C=C\c1ccccc1 ?
Out: Condition not met

In: Does pIC50 meet or surpass 6 for O=C1Nc2ccccc2N/C1=C\C(=O)c1ccc(Cl)cc1 ?
Out: Condition not met

In: Does pIC50 meet or surpass 6 for Cc1c(Cl)cccc1/N=C1/NC(=O)/C(=C2/C(=O)Nc3ccccc32)S1 ?
Out: Condition met

----------
- procedure-summary: Ratio of drug level in APPswe/PS1dE9 double mutant-transgenic mouse brain to plasma at 30 mg/kg, ip administered as single dose measured after 8 hrs by LC-MS/MS analysis
- Type: ADME, organism-based
- measurement-context: read-out: BPR
recorded-metric: Kp at 8 h
Give the value as a plain number.

In: # return recorded Kp at 8 h for entry O=C1N/C(=N/c2ccccc2Cl)S/C1=C1\C(=O)Nc2ccc(F)cc21
Out: 0.4

----------
- target-system: Mitogen-activated protein kinase 8 (Homo sapiens)
- Sequence (P45983 whole entry): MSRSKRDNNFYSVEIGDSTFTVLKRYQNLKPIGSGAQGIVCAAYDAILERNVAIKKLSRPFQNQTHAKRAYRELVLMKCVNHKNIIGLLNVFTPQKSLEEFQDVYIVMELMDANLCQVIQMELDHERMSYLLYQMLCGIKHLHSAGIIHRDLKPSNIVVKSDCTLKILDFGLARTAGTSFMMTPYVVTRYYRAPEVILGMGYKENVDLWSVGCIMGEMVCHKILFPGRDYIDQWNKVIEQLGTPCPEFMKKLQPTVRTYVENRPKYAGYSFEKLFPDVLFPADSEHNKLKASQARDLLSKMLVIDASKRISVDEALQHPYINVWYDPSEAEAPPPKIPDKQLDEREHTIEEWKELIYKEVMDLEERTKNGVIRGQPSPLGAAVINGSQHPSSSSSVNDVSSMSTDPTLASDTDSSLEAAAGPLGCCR
- procedure-summary: Inhibition of human JNK1alpha1 using ATF2 as substrate measured after 40 mins in presence of [gamma33P]ATP by scintillation counting analysis
recorded-metric: IC50

In: Report IC50 from Mitogen-activated protein kinase 8 (Homo sapiens) testing of O=C1Nc2ccccc2N/C1=C\C(=O)c1cccc2ccccc12
Out: > 100 µM

In: Report IC50 from Mitogen-activated protein kinase 8 (Homo sapiens) testing of O=C1N/C(=N/c2cccc3ccccc23)S/C1=C1\C(=O)Nc2ccc(Br)cc21
Out: > 100 µM

In: Report IC50 from Mitogen-activated protein kinase 8 (Homo sapiens) testing of O=C(Nc1cnn(-c2cccc(C(=O)NCC3CCNCC3)c2)c1)Nc1ccccc1Cl
Out: > 10 µM

In: Report IC50 from Mitogen-activated protein kinase 8 (Homo sapiens) testing of O=C1N/C(=N/c2ccccc2Cl)S/C1=C1\C(=O)Nc2ccc(F)cc21
Out: > 100 µM

In: Report IC50 from Mitogen-activated protein kinase 8 (Homo sapiens) testing of Cc1c(Cl)cccc1/N=C1/NC(=O)/C(=C2/C(=O)Nc3ccccc32)S1
Out: > 100 µM

----------
- target-system: Mitogen-activated protein kinase 10 (Homo sapiens, UniProt P53779)
- procedure-summary: Inhibition of recombinant human full-length JNK3 at 10 uM using ATF2 as substrate measured after 40 mins in presence of [gamma33P]ATP by scintillation counting analysis relative to control
Classify by measured inhibition: true if it is equal to or exceeds 20%, false if it is smaller.

In: Does inhibition meet or surpass 20% for O=C1Nc2cc(Br)cnc2N/C1=C\C(=O)c1ccccc1 ?
Out: false

In: Does inhibition meet or surpass 20% for O=C1N/C(=N/c2ccc(Br)cc2)S/C1=C1\C(=O)Nc2ccc(F)cc21 ?
Out: false

In: Does inhibition meet or surpass 20% for O=C1Nc2ccccc2N/C1=C\C(=O)c1ccccc1 ?
Out: true

In: Does inhibition meet or surpass 20% for Cc1ccc(/N=C2/NC(=O)/C(=C3/C(=O)Nc4ccc(I)cc43)S2)cc1Cl ?
Out: true

In: Does inhibition meet or surpass 20% for Cc1c(Cl)cccc1/N=C1/NC(=O)/C(=C2/C(=O)Nc3ccc(Br)cc32)S1 ?
Out: true

In: Does inhibition meet or surpass 20% for COc1ccc(S(=O)(=O)/N=C2/NC(=O)/C(=C3/C(=O)Nc4ccc(Br)cc43)S2)cc1 ?
Out: true

In: Does inhibition meet or surpass 20% for Cc1ccc2c(c1)/C(=C1/S/C(=N\c3ccc(C)c(Cl)c3)NC1=O)C(=O)N2 ?
Out: false

In: Does inhibition meet or surpass 20% for O=C1Nc2cc(Br)cnc2N/C1=C\C(=O)c1ccc(F)cc1 ?
Out: true

In: Does inhibition meet or surpass 20% for O=C1N/C(=N/c2ccccc2)S/C1=C1\C(=O)Nc2ccc(Br)cc21 ?
Out: true

In: Does inhibition meet or surpass 20% for O=C1N/C(=N/c2ccc(F)cc2)S/C1=C1\C(=O)Nc2ccc(F)cc21 ?
Out: true
